Each record here notes measured Dmax.
- system.under.test: Androgen Receptor (AR) (Homo sapiens, UniProt P10275)
- Construct: endogenous in cells; host or cells: VCaP
- Sequence (P10275 whole entry): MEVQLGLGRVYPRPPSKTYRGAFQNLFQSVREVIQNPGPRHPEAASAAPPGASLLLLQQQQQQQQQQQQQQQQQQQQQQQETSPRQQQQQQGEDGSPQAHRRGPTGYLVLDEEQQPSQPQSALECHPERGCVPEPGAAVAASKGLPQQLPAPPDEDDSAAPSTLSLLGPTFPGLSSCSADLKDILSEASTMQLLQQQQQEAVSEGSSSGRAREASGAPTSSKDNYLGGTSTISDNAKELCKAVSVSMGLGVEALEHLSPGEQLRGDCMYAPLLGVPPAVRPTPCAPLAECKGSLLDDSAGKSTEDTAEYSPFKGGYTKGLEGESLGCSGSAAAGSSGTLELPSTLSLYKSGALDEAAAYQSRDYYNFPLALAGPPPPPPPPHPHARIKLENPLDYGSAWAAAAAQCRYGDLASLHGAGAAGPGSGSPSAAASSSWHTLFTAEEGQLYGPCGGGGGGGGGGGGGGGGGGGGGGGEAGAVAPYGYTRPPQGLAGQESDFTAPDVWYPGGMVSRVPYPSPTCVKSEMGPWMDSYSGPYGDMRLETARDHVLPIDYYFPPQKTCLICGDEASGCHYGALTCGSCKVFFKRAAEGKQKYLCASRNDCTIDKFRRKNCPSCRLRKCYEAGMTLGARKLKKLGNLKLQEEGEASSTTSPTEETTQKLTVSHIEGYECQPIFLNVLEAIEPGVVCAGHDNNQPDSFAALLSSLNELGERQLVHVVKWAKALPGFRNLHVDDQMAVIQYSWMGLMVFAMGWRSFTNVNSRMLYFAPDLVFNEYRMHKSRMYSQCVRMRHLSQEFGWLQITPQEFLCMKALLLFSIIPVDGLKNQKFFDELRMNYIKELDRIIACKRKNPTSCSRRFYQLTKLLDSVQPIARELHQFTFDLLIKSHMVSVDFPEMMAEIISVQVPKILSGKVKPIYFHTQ
- procedure.details: AR immunofluorescence staining, high content imager, VCaP cells
- Format: cell-based
- assay.context: maximal AR degradation
measurement.label: Dmax

[[record]]
compound = "COc1cc(O[C@H]2C(C)(C)[C@H](NC(=O)c3ccc(N4CCC5(CC4)CN([C@H]4C[C@H](Oc6ccc(C(=O)N[C@H]7CCC(=O)NC7=O)c(OC)c6)C4)CCO5)cc3)C2(C)C)ccc1C#N [Compound 34]"
result = "≥ 70%"

[[record]]
compound = "COc1cc(O[C@H]2C[C@H](OC3CCN(c4ccc(C(=O)N[C@H]5C(C)(C)[C@H](Oc6cc(C)c(C#N)c(C)c6)C5(C)C)cc4)CC3)C2)ccc1C(=O)NC1CCC(=O)NC1=O (stereo partly shown) [Compound 55]"
result = "≥ 70%"

[[record]]
compound = "Cc1cc(O[C@H]2C(C)(C)[C@H](NC(=O)c3ccc(N4CCO[C@H](CN5CCN(c6ccc(C(=O)N[C@@H]7CCC(=O)NC7=O)c(F)c6)CC5)C4)cc3)C2(C)C)cc(C)c1C#N (single isomer, unassigned) [Compound 49]"
result = "≥ 70%"

[[record]]
compound = "CCN(C(=O)c1ccc(N2CCN(CC3CCN(c4ccc(C(=O)N[C@H]5CC[C@H](Oc6ccc(C#N)c(Cl)c6)CC5)nn4)CC3)CC2)cc1)C1CCC(=O)NC1=O (stereo partly shown) [Compound 32]"
result = "< 50%"

[[record]]
compound = "N#Cc1ccc(O[C@H]2CC[C@H](NC(=O)c3ccc(N4CCC(CN5CCN(c6ccc(C(=O)NC7CCC(=O)NC7=O)cn6)CC5)CC4)nn3)CC2)cc1Cl (stereo partly shown) [Compound 30]"
result = "≥ 70%"

[[record]]
compound = "COc1cc(O[C@H]2C(C)(C)[C@H](NC(=O)c3ccc(N4CCC(CN5CCN(c6ccc(C(=O)NC7CCC(=O)NC7=O)cc6OC)CC5)CC4)cc3)C2(C)C)ccc1C#N (stereo partly shown) [Compound 60]"
result = "≥ 70%"

[[record]]
compound = "COc1cc(O[C@H]2C(C)(C)[C@H](NC(=O)c3ccc(N4CCC(CN5CCN(c6ccc(C(=O)N[C@H]7CCC(=O)NC7=O)nc6)CC5)CC4)cc3)C2(C)C)ccc1C#N [Compound 40]"
result = "≥ 70%"

[[record]]
compound = "N#Cc1ccc(O[C@H]2CC[C@H](NC(=O)c3ccc(N4CCC(CN5CCN(c6ccc(C(=O)NC7CCC(=O)NC7=O)nc6)CC5)CC4)nn3)CC2)cc1Cl (stereo partly shown) [Compound 22]"
result = "≥ 70%"

[[record]]
compound = "COc1cc(O[C@H]2C(C)(C)[C@H](NC(=O)c3ccc(N4CCC(CN5CCN(c6ccc(C(=O)N[C@@H]7CCC(=O)NC7=O)c(F)c6)CC5)CC4)cc3)C2(C)C)ccc1C#N [Compound 14]"
result = "< 50%"

[[record]]
compound = "Cc1cc(O[C@H]2C(C)(C)[C@H](NC(=O)c3ccc(N4CCC5(CC4)CN([C@H]4C[C@H](Oc6ccc(C(=O)NC7CCC(=O)NC7=O)cc6)C4)CCO5)cc3)C2(C)C)cc(C)c1C#N (stereo partly shown) [Compound 68]"
result = "50 to 70%"

